- STUDY SYSTEM: human Npt2a (Homo sapiens, UniProt Q06495)
- Sequence (Q06495 whole entry): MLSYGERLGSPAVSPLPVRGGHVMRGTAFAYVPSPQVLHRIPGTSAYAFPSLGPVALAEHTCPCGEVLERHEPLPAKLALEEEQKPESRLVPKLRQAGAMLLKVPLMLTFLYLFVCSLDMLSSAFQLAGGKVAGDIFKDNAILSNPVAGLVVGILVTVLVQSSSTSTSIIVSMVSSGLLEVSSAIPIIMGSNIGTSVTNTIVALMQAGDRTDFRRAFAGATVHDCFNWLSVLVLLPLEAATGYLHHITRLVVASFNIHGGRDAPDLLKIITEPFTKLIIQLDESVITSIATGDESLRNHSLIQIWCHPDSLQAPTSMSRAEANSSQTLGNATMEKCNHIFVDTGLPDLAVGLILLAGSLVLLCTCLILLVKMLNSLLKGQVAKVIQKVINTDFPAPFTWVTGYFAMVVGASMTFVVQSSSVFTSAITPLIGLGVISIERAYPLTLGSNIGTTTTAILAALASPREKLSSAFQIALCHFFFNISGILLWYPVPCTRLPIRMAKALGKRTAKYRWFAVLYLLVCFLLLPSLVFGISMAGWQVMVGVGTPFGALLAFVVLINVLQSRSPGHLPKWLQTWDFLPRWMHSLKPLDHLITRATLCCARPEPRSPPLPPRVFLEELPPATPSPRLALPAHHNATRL
- TEST DESCRIPTION: Npt2a activity cell based assay, membrane potential dye, CHO T-REx hNpt2a cells
- TEST PARAMETERS: doxycycline-induced, depolarization by sodium phosphate influx, average or median values if tested more than once
Counter-ions that a name gives are not always drawn.

- MOLECULE: "CCc1c(Nc2cc(-n3nc(C)cc3C)ncn2)nn(CCOCc2ccccc2)c1-c1ccc(F)cc1"
  READOUT UNITS: "nM"
  IC50: 670
- MOLECULE: "Cc1nn(-c2cc(Nc3c(C)nn(-c4ccc(C#N)cc4)c3C)ncn2)c(C)c1CC(C)(C)O"
  READOUT UNITS: "nM"
  IC50: 92
- MOLECULE: "Cc1nn(-c2cc(Nc3c(C)c(-c4ccc(F)cc4)nn3CC3CC3)ncn2)c(C)c1N [Example 484, trifluoroacetate]"
  READOUT UNITS: "nM"
  IC50: 36
- MOLECULE: "CCOC(=O)c1c(C)nn(-c2cc(Nc3c(C)c(-c4ccc(F)cc4F)nn3CC3CC3)ncn2)c1C"
  READOUT UNITS: "nM"
  IC50: 5
- MOLECULE: "Cc1cc(C(F)F)n(-c2cc(Nc3c(C4CC4)c(-c4ccc(F)cc4)nn3C)ncn2)n1"
  READOUT UNITS: "nM"
  IC50: 110
- MOLECULE: "Cc1cc(C)n(-c2cc(Nc3[nH]nc(-c4ccccc4)c3C)ncn2)n1"
  READOUT UNITS: "nM"
  IC50: 33.7
- MOLECULE: "CCc1c(Nc2cc(-n3nc(C)c4c3CCC4=O)ncn2)nn(C)c1-c1ccc(F)cc1"
  READOUT UNITS: "nM"
  IC50: 120
- MOLECULE: "COc1ccc(-c2nn(C)c(Nc3cc(-n4nc(C)c(C(F)(F)F)c4C)ncn3)c2C)cn1"
  READOUT UNITS: "nM"
  IC50: 190
- MOLECULE: "Cc1nn(-c2cc(Nc3c(C)c(-c4ccccc4)nn3C)ncn2)c(C)c1Cl"
  READOUT UNITS: "nM"
  IC50: 50
- MOLECULE: "Cc1cc(C)n(-c2cc(Nc3nn(C)c(-c4ccc(C(F)F)cc4)c3C)ncn2)n1"
  READOUT UNITS: "nM"
  IC50: 140
- MOLECULE: "CCc1c(Nc2cc(-n3nc(C)c(CO)c3C)ncn2)nn(C)c1-c1ccc(F)cc1"
  READOUT UNITS: "nM"
  IC50: 760
- MOLECULE: "Cc1nn(-c2cc(Nc3c(C)c(-c4ccc(C(F)(F)F)cc4)nn3CC3CC3)ncn2)c(C)c1C(C)(C)O"
  READOUT UNITS: "nM"
  IC50: 240
- MOLECULE: "CCOC(=O)c1c(C)nn(-c2cc(Nc3c(C)c(-c4ccc(C)nc4)nn3CC3CC3)ncn2)c1C"
  READOUT UNITS: "nM"
  IC50: 65
- MOLECULE: "COCCc1c(Nc2cc(-n3nc(C)cc3C)ncn2)n[nH]c1-c1ccc(F)cc1"
  READOUT UNITS: "nM"
  IC50: 2350
- MOLECULE: "Cc1c(Nc2cc(-n3nc(C)c4ccncc43)ncn2)nn(C)c1-c1ccc(C#N)cc1"
  READOUT UNITS: "nM"
  IC50: 210
- MOLECULE: "CCc1c(Nc2cc(-n3nc(C)c(C#N)c3C)ncn2)n[nH]c1-c1ccc(F)cc1"
  READOUT UNITS: "nM"
  IC50: 94
